# Lookup of reported pIC50 keyed by entry
- target-desc: UniProtKB P20292
- Sequence (P20292 whole entry): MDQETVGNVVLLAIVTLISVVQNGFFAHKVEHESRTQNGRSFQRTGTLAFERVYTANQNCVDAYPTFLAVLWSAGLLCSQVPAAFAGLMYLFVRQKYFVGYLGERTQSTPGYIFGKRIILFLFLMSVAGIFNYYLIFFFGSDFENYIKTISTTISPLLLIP
- test-summary: Inhibition of 5-lipoxygenase-activating protein in human polymorphonuclear cells assessed as inhibition of calcium ionophore-induced LTB4 production in presence of human whole blood
- Assay type: tissue-based
Would you please state pIC50, meaning minus log10 of the concentration in mol/L, as a bare number?

Examples with answers:
COC(=O)c1ccc(OCc2ccc3ccccc3n2)cc1[C@]1(c2ccc(F)cc2)C[C@H]2CC[C@H]1C2 (racemic)	5.85
S=c1[nH]nc(-c2ccc(OCc3ccc4ccccc4n3)cc2[C@]2(c3ccccc3)C[C@H]3CC[C@H]2C3)o1 (racemic)	6.12
c1ccc([C@@]2(c3cc(OCc4ccc5ccccc5n4)ccc3-c3ncon3)C[C@H]3CC[C@H]2C3)cc1 (racemic)	6.14

Exercise: For the molecule shown here, Cc1noc(-c2ccc(OCc3ccc4ccccc4n3)cc2[C@]2(c3ccccc3)C[C@H]3CC[C@H]2C3)n1 (racemic) , give the reported pIC50.
Key: 5.99

Exercise: Which pIC50 is reported for this molecule? COC(=O)c1ccc(OCc2ccc3ccccc3n2)cc1C1(c2ccccc2)CC(C)C1 (stereo not given)
Key: 5.96

Exercise: Item COC(=O)c1ccc(OCc2ccc3ccccc3n2)cc1C1(c2ccccc2)C2CCC1CC2 (stereo not given) has what recorded pIC50?
Key: 5.89

Exercise: Find the recorded pIC50 belonging to COC(=O)c1ccc(OCc2ccc3ccccc3n2)cc1C(c1ccccc1)C(C)(C)C (racemic) and report it.
Key: 6.17

Exercise: Need pIC50 of "CC1(C)CC(c2ccccc2)(c2cc(OCc3ccc4ccccc4n3)ccc2-c2n[nH]c(=O)o2)C1" , thanks.
Key: 6.08

Exercise: So what does the record say about pIC50 for COC(=O)c1ccc(OCc2ccc3ccccc3n2)cc1[C@]1(c2cccc(C)c2)C[C@H]2CC[C@H]1C2 (racemic) ?
Key: 6.03

Exercise: GET /values?readout=pIC50&item= O=C(NC1CCCC1)c1ccc(OCc2ccc3ccccc3n2)cc1[C@]1(c2ccccc2)C[C@H]2CC[C@H]1C2 (racemic)
Key: 6.02
